- assaySummary: GST activity of purified recombinant protein toward fomesafen
- Format: biochemical
- conditionContext: thiol hGSH; recombinant enzyme; ±SE, n=2
measureName: GST activity toward fomesafen, hGSH (pkat mg-1)
State just the number; it will be interpreted in pkat mg-1.

For GST 3.3: Recombinant soybean Glutathione-S-transferase 3.3, SEQ ID No. 10; may also be referred to as GST 3.6 (protein, Glycine max) MAERDLRLLGAWFSPFALRVQIALNLKGLDYEVVEETLNPKSELLLKSNPVHKKIPVFFHGDKVICESAIIVEYIDEVWSNNALSILPQNAYDRANARFWVSYIDDKWLTSLKSVLATEDDEAKKLHFEQAEEVLEKVEEVFNKCSEGKAYFGGDTIGFVDIGFGSFLSFIRVSENMNERKLLDETKYPGLTLWAETFAADPAVKGLLPETEKLVEFAKILQLKWAAAAAAK , what is its reported GST activity toward fomesafen, hGSH?
6250
